# Tested on: SNB-19 CNS
# protocol: NCI tumour cell line growth inhibition, 48 h
Measured GI50 of individual entries

Examples from the recorded data:
1) O=C1/C(=C\c2ccc(Cl)cc2)CN(C(=S)Nc2ccccc2)C/C1=C\c1ccc(Cl)cc1 = 0.661 µM
2) O=[N+]([O-])c1ccc(N/N=C\c2cc(Cl)ccc2O)nc1 = 3.41 µM
3) COc1cccc(NC(=O)c2sc3nc4c(cc3c2N)CCCC4)c1 = 0.813 µM
4) COc1ccc(/C(=C/c2cc(OC)c(OC)c(OC)c2)[N+](=O)[O-])cc1 = 1.68 µM

Field: next molecule
// lookup GI50 for CC1(C)N=C(N)N=C(N)N1c1cccc(/C=C/C=C/c2cccc([N+](=O)[O-])c2)c1 6.04 µM
